Here, each record is paired with measured melting point data.
# number only, unit °C dropped from output

COC(=O)C1(C)OCC(c2ccccc2)(c2ccccc2)CO1 ... 116

Shift focus to the following entry.
melting point recorded for this compound, Cc1nc2cc3c(cc2c(=O)[nH]1)OCCO3 , is 275

====

readout.name: melting point

Use the examples below as a reference point.
CCCCCCCNC(=O)N(C)c1cccc(-c2ccc(C=C(C)C(=O)O)cc2OCC)c1 ... 123 °C
ClC(Cl)(Cl)c1nnc(C=Cc2ccc(C=Cc3ccccc3)cc2)o1 ... 176 to 178 °C
Cc1noc(NS(=O)(=O)c2ccccc2-c2ccc(-c3ncco3)cc2CN(C)C(=O)c2ccccc2F)c1C ... 127 to 137 °C
CCOC(=O)CCC1(C)Oc2ccc([N+](=O)[O-])cc2O1 (stereo not drawn) ... 76 to 78 °C

Record summary for COC(=O)c1cc2nc(C)[nH]c2cc1C(=O)OC : reported melting point = 151 to 152 °C

So for O=C1CCCC(=O)N1C(Sc1nnn[nH]1)c1ccccc1 (stereo not drawn) , the logged melting point turned out to be 84 to 85 °C

compound CCN(CC)CCNc1ccc2c3c(nn2CCN(CC)CC)-c2c(O)ccc(O)c2C(=O)c13 , melting point observed: 152 °C

# compound O=C(c1c(F)cccc1F)N1COCN(c2ccc(SC(F)(F)C(F)(F)F)cc2F)C1=O ; its melting point = 47 to 50 °C

Entry C#CCSc1nc(Cl)cc(NCc2ccc(Cl)cc2)n1 — recorded melting point = 85 to 88 °C

Record CC(=O)c1ccc2c(c1)C1(c3cc(C(C)=O)ccc3-2)c2cc(C(C)=O)ccc2-c2ccc(C(C)=O)cc21 , field melting point: > 300 °C

====

// melting point lookup, one value per entry

// solved cases for melting point follow
CCOC(=O)Cc1cccc(OCc2ccc3oc([N+](=O)[O-])c(-c4ccccc4)c3c2)c1 ... 67 to 68 °C
COc1ccc(Sc2c(O)c3c(Cl)cc(Cl)cc3[nH]c2=O)cc1 ... 280 to 282 °C
CN1C(O)=C(C(=O)Nc2ccccc2Cl)c2ccsc2S1(=O)=O ... 168 to 170 °C
O=C(O)CN=C(O)c1ccc(C(O)=NCC(=O)O)c2c(C(=O)O)ccc(C(=O)O)c12 ... > 300 °C
CC(=Cc1ccc(O)cc1)c1ccc2c(c1)C(C)(C)CC2(C)C ... 137 °C
Cc1ccccc1C(=O)Nc1ccc(C(=O)N2CCCC(NC=O)c3ccccc32)cc1 (configuration not stated) ... 211 to 213 °C
CCCCc1nc2c(N)nc3ccccc3c2n1CCCNC(=O)c1ccccc1 ... 189 to 190 °C
CC(=O)c1c(C)nc(N(Cc2ccccc2)Cc2ccccc2)c(N)c1NCCc1ccccc1 ... 152 to 153 °C
CCOC(=O)c1ccc(OCCCCC2CC3=C(C2)C(=O)C(OC)=C(OC)C3=O)cc1 ... 97 to 99 °C
NC(C(=O)N(N)c1ccc2ccccc2c1)c1ccccc1 (configuration not stated) ... 176 to 178 °C

melting point in this record for O=C(CCc1cnoc1-c1ccccc1)Nc1ccc2ncccc2c1 : 170 to 171 °C

Record CCn1ncc(C(=O)c2ccc(S(C)(=O)=O)c(C3=NOCC3)c2C)c1OCC(=O)c1ccccc1 , field melting point: 177 to 179 °C

Short answer for CCC(=O)c1cc2cc(OC)ccc2[nH]1 : melting point was 170 to 172 °C

# melting point of CNS(=O)(=O)Cc1cc(Br)c(N)c(Br)c1 = 155 to 157 °C

Briefly, melting point measured for CC1(C)CC(=O)c2c(OC3CCC3)sc(-c3cc[nH]n3)c2C1 : 202 to 204 °C

Record CC(C)Cn1cnc2c(N)nc3cnccc3c21 . Reported melting point: 306 to 307 °C

get_value(item= O=Cc1ccc2sc(=O)[nH]c2c1 , readout=melting point) returns 140 to 142 °C

Noted for Cc1nc2cc3c(cc2c(=O)n1COC(=O)C(C)(C)C)C(Br)CC3 (configuration not stated) : its melting point reads 98 °C

Recorded melting point (molecule CC(=O)c1cc2c(c(C)c1O)OC(C)(C)CC2C (configuration not stated) ): 96 to 97 °C

====

Measured melting point of individual entries

# melting point (compound: CCCCCCCCCCCCCCC(=O)CC(=O)OC ) is 51 to 53 °C

# compound COc1ccc(-c2c(Cl)c(CN3C(=O)CCC3=O)nc3sc4c(c23)CCN(C(C)=O)C4)cc1OC ; its melting point = 208 to 210 °C

What the record says about COc1ccccc1C1=C(C#N)C(c2ccccc2OC)c2c[nH]nc2N1 (configuration not stated) : melting point is 220 °C

====

melting point values by entry

// melting point lookup, compound = COc1cc2c3c(n(CCCCO)c(=O)c2cc1OC)-c1cc2c(cc1C3=O)OCO2 , result: 304 to 308 °C

For this compound ( O=C(O)c1cc(-c2ccc(OC(F)(F)F)cc2)c2c3c(ccc2c1)OCO3 ), measured melting point is 296 to 300 °C

Kindly note the recorded melting point for O=C(O)c1ccc(-c2ccc(C(=O)O)cc2-c2nc3ccccc3[nH]2)c(-c2nc3ccccc3[nH]2)c1 , which is > 400 °C

====

Below, each entry is listed with its recorded melting point.

Please review the entries below; each comes with its answer.
C=CCSc1cc(C(=O)O)cc(S(N)(=O)=O)c1Oc1ccccc1 ... 218 to 219 °C
Cc1noc(=O)c2ccc(N)cc12 ... 291 to 296 °C
CCc1ccc2c(Cc3nc4c(F)c(F)cc(F)c4s3)cn(CC(=O)O)c2n1 ... 155 to 157 °C
CC(C(N)=O)c1ccc(-c2ccc(F)cc2F)c(F)c1 (stereo not drawn) ... 136 to 137 °C
CC(c1oc2ccccc2c(=O)c1-c1cccc(F)c1)n1nc(-c2ccc(OC(F)(F)F)cc2)c2c(N)ncnc21 (stereo not drawn) ... 224 to 226 °C

Quick note, melting point for NC(=O)N1C(=O)C(=C(OCC(=O)C2COCOC2)c2cccs2)c2cc(F)c(Cl)cc21 landed at 199 to 200 °C

The value of melting point measured for the molecule COc1cc(Nc2c(C#N)cnc3cc(C#Cc4ccncc4)sc23)c(Cl)cc1Cl turned out to be 221 to 223 °C

Noted for CC(C)(C)c1ccc(C(O)CCCN2CCC(C(O)c3nc4ccccc4n3Cc3ccc(F)cc3)CC2)cc1 (stereo not drawn) : its melting point reads 87 to 90 °C

====

readout.name: melting point

FC(F)(F)c1cccc(-c2cnn(-c3cccnc3)c2)n1 ... 130 to 131 °C
CC(=O)OC[C@H]1O[C@@H]2[C@@H](Sc3ccc(Cl)cc3N2C)[C@@H](OC(C)=O)[C@@H]1OC(C)=O ... 217 to 218 °C
CC1=NC(NC(=O)OCc2ccccc2)C(=O)N(CC(=O)C(C)(C)C)c2ccccc21 (stereo not drawn) ... 68 °C
O=C(Nc1nccs1)C(CC1CCCC1)c1ccc(-c2ccncc2)cc1 (stereo not drawn) ... 165 to 167 °C
O=Cc1ccc(OCCNc2nc3ccccc3o2)cc1 ... 103 to 106 °C

melting point for CC=Cc1cccc2c(=O)c(C)c(NC(=O)OC(C)(C)C)oc12 is 200 to 203 °C

Input COc1cc(Cl)cn2cc(-c3ccc(Cl)cc3)nc12 . Output melting point: 150 to 151 °C

The compound listed as COCCNc1nc(-n2ccnc2)nc2ccc(C(=O)OC)cc12 shows melting point equal to 252 to 253 °C

Cc1cc2c(cc1C)CCC(C(=O)O)=C2 yielded melting point of 222 to 223 °C

Entry NC(=O)c1cc(-c2cccc3cc(Cc4cc(F)cc(Cl)c4)sc23)ccc1F ; melting point = 169 to 170 °C

CCCCCCCCCCCCCCCC(=O)Nc1c(C)cccc1C(=O)O has a reported melting point of 106 to 113 °C

COc1ccc(N2CCN(Cc3ccc(Nc4ccnc5cc(C(F)(F)F)ccc45)cc3)CC2)cc1 has a reported melting point of 235 to 237 °C

melting point reported for this compound CN1CC(CO)C=C2c3cccc4[nH]c(Cl)c(c34)CC21 (stereo not drawn) : 207 °C

====

melting point for assorted molecules

CCOC(=O)c1nc(-c2ccc(Cl)cc2Cl)n(-c2ccc(C(F)(F)F)cc2)c1C ... 160 to 162 °C
COc1ccc2[nH]c(/C(=C/c3ccccc3)c3ccccc3)cc2c1 ... 144 to 147 °C
Cc1c(C)c2c(c(C)c1OC(=O)c1ccccc1)SC(C)O2 (configuration not stated) ... 100 to 102 °C
CCOC(=O)C1=C(C)NC(N)=C(C(=O)OCC)C1c1ccccc1C(F)(F)F (configuration not stated) ... 156 °C
COC1=C(OC)C(=O)c2c(cccc2S(=O)c2ccccc2)C1=O (configuration not stated) ... 165 to 167 °C

Entry under test: CC=C(C#N)c1cccnc1 . Its melting point was 46 to 47 °C

Record CC(C)(C)OC(=O)C1CCN(Sc2ccncc2)CC1 . Reported melting point: 71 to 72 °C

melting point measured on CCc1nc2c(cnn2CC)c(NC2CCOCC2)c1CNC(=O)c1cccc(C(=O)NCc2ccc(C)c(-c3cccc(CN4CCNCC4)c3)c2)c1 = 135 to 138 °C

Measured melting point of C=C(C)Cc1c(C)c(NC=O)c(C)c(C)c1O : 163 to 164 °C

Documented melting point of CCCOc1ccc(CC(C)=O)cc1S(N)(=O)=O : 106 to 107 °C

CCOC(=O)c1c(-c2ccc(F)cc2)c2ccccc2[nH]c1=O has a reported melting point of 204 to 206 °C

Notebook: CC(C)(C)OC(=O)NC1CNc2c(cc(Br)cc2[N+](=O)[O-])C1 (configuration not stated) , melting point read as 193 to 195 °C

Entry Cc1cc(N)n(C(=NO)c2cccc([N+](=O)[O-])c2)n1 ; melting point = 224 to 226 °C

Documented melting point of Cn1c2ccccc2c2nc3cccc(CO)c3nc21 : 201 °C

Field melting point (entry CC1(C)Cc2cc(Br)cc(O)c2O1 ) reads 70 °C

Entry CO[Si](OC)(OC)c1ccc(C#Cc2ccc(C#Cc3ccc([Si](OC)(OC)OC)cc3)cc2)cc1 — recorded melting point = 164 to 166 °C

Recorded melting point (molecule CCOC(=O)CS(=O)CCCCl (configuration not stated) ): 46 to 47 °C

Measured melting point, O=C(NO)C1(NS(=O)(=O)c2ccc(Oc3ccc(F)cc3)cc2)CCOCC1 : 176 to 177 °C
